pIC50: −log10 of the molar value.
Ok so here's the combined literature set: pIC50 for UniProtKB Q93009.

Recorded pIC50, per entry:
>>> print(df.to_string())
                                   compound    test_value
0  N#Cc1cc2c(c(-c3ncnc4cc(Cn5c(=O)ccn(CC(F)(F)F)c5=O)sc34)c1)N([C@H]1CCNC1)CCC2        > 8.00
1  O=C(C1Cc2cc(Cl)cc(-c3ccnc4[nH]c(-c5ccccc5)cc34)c2O1)N1CCNCC1 (stereo not shown)  4.52 to 5.00

Please list pIC50 recorded for the compound Cc1cc(Cl)cc(-c2ncnc3cc(CN4C(=O)CCC4C(F)(F)F)sc23)c1CC1CNCC(C)(C)O1 (stereo not shown) > 8.00

Please list pIC50 recorded for the compound Cc1cc(Cl)cc(-c2ncnc3cc(CN4C(=O)CCNC4=O)sc23)c1C[C@@H]1CNCC(C)(C)O1 > 8.00

Please list pIC50 recorded for the compound CCN1CCN(Cc2c(C)cc(Cl)cc2-c2ccnc3cc(CN4C(=O)CCC4=O)sc23)[C@@H](C)C1 > 8.00

Please list pIC50 recorded for the compound CN[C@@H]1CCCN(C(=O)[C@H]2Cc3cc(Cl)cc(-c4ccnc5ccsc45)c3O2)C1 4.52 to 5.00

Please list pIC50 recorded for the compound Cc1cc(Cl)cc(-c2ncnc3cc(Cn4c(=O)ccn(C)c4=O)sc23)c1CC1CNCC2(CCC2)O1 (stereo not shown) > 8.00

----------
Ok so here's the combined literature set: pIC50 for Ubiquitin carboxyl-terminal hydrolase 7 (Homo sapiens, UniProt Q93009).
pIC50: −log10 of the molar value.

Recorded pIC50, per entry:
>>> print(df.to_string())
                                   molecule                               measured_on  test_value
0  CN(C)[C@@H]1CCN(C(=O)[C@H]2Cc3cc(Cl)cc(-c4ccnc5cc(CO)sc45)c3O2)C1  Ubiquitin carboxyl-terminal hydrolase 7 (Homo sapiens, UniProt Q93009)      > 6.00
1  Cc1cc(Cl)cc(-c2ncnc3cc(CN4CCOCC4=O)sc23)c1CC1CNCCO1 (stereo not drawn)  Ubiquitin carboxyl-terminal hydrolase 7 (Homo sapiens, UniProt Q93009)      < 7.00
2        COCc1nnc2nc3c(nn12)C(=O)c1ccccc1-3  Ubiquitin carboxyl-terminal hydrolase 7 (Homo sapiens, UniProt Q93009)      < 4.00

State the measured pIC50 (Ubiquitin carboxyl-terminal hydrolase 7 (Homo sapiens, UniProt Q93009)) of COc1cccc(-n2ncc3c2CN(C#N)C3)c1 4.52 to 5.00

State the measured pIC50 (Ubiquitin carboxyl-terminal hydrolase 7 (Homo sapiens, UniProt Q93009)) of CN1CCC(=O)N(Cc2cc3nccc(-c4cc(Cl)cc(Cl)c4CC4CNCC(C)(C)O4)c3s2)C1=O (stereo not drawn) > 8.00

State the measured pIC50 (Ubiquitin carboxyl-terminal hydrolase 7 (Homo sapiens, UniProt Q93009)) of Cc1cc(Cl)cc(-c2ccnc3cc(CN4C(=O)CCC4=O)sc23)c1C[C@@H]1CNCC(C)(C)O1 > 8.00

State the measured pIC50 (Ubiquitin carboxyl-terminal hydrolase 7 (Homo sapiens, UniProt Q93009)) of CC1(C)C2C(=O)N(Cc3cc4nccc(-c5cc(Cl)cc(Cl)c5CC5CNCCO5)c4s3)C(=O)C21 (stereo not drawn) > 8.00

State the measured pIC50 (Ubiquitin carboxyl-terminal hydrolase 7 (Homo sapiens, UniProt Q93009)) of Cn1ccc(=O)n(Cc2cc3nccc(-c4cc(Cl)cc5c4O[C@@H](C(=O)N4CCNCC4)C5)c3s2)c1=O > 6.00

State the measured pIC50 (Ubiquitin carboxyl-terminal hydrolase 7 (Homo sapiens, UniProt Q93009)) of Cc1cccc(CCC(=O)N2CCC(O)(Cn3cnc4cc(Cl)ccc4c3=O)CC2)c1 < 5.00

State the measured pIC50 (Ubiquitin carboxyl-terminal hydrolase 7 (Homo sapiens, UniProt Q93009)) of CCC(O)c1cc2nccc(-c3cc(Cl)cc4c3OC(CN3CCNCC3)C4)c2s1 (stereo not drawn) 4.52 to 5.00

State the measured pIC50 (Ubiquitin carboxyl-terminal hydrolase 7 (Homo sapiens, UniProt Q93009)) of COc1ccc2c(-c3cc(Cl)cc4c3OC(C(=O)N3CCNCC3)C4)ccnc2c1 (stereo not drawn) 5.00 to 6.00

State the measured pIC50 (Ubiquitin carboxyl-terminal hydrolase 7 (Homo sapiens, UniProt Q93009)) of O=c1cc(CC(F)(F)F)cnn1Cc1cc2nccc(-c3cc(Cl)cc4c3N([C@@H]3CNC5(CCC5)C3)CCC4)c2s1 > 8.00

State the measured pIC50 (Ubiquitin carboxyl-terminal hydrolase 7 (Homo sapiens, UniProt Q93009)) of N#CN1Cc2[nH]nc(-c3ccc(C(=O)NCc4ccccc4)cc3F)c2C1 > 5.00

State the measured pIC50 (Ubiquitin carboxyl-terminal hydrolase 7 (Homo sapiens, UniProt Q93009)) of O=C(N1CCC(O)(Cn2cnc3cc(Cl)ccc3c2=O)CC1)N(Cc1ccccc1)Cc1ccccc1 < 5.00

State the measured pIC50 (Ubiquitin carboxyl-terminal hydrolase 7 (Homo sapiens, UniProt Q93009)) of CN1CCC(=O)N(Cc2cc3nccc(-c4cc(Cl)cc(Cl)c4CC4CNCCO4)c3s2)C1=O (stereo not drawn) > 8.00

State the measured pIC50 (Ubiquitin carboxyl-terminal hydrolase 7 (Homo sapiens, UniProt Q93009)) of O=C1CCC(=O)N1Cc1cc2nccc(-c3cc(C(F)(F)F)cc4c3N([C@H]3CCNC3)CCC4)c2s1 (single isomer, unassigned) > 8.00

State the measured pIC50 (Ubiquitin carboxyl-terminal hydrolase 7 (Homo sapiens, UniProt Q93009)) of O=C1CCC(=O)N1Cc1cc2nccc(-c3cc(Cl)cc4c3N(C3CN(C5CC5)C3)CCC4)c2s1 7.00 to 8.00

State the measured pIC50 (Ubiquitin carboxyl-terminal hydrolase 7 (Homo sapiens, UniProt Q93009)) of Cc1c[nH]c2nccc(-c3cc(Cl)cc4c3OC(C(=O)N3CCNCC3)C4)c12 (stereo not drawn) 5.00 to 6.00

State the measured pIC50 (Ubiquitin carboxyl-terminal hydrolase 7 (Homo sapiens, UniProt Q93009)) of N#Cc1cc2nccc(-c3cc(Cl)cc4c3O[C@@H](C(=O)N3CCNCC3)C4)c2s1 5.00 to 6.00

State the measured pIC50 (Ubiquitin carboxyl-terminal hydrolase 7 (Homo sapiens, UniProt Q93009)) of C[C@H]1CN(C(=O)C2Cc3cc(Cl)cc(-c4ccnc5[nH]ccc45)c3O2)CCN1 (stereo partly drawn) 5.00 to 6.00

State the measured pIC50 (Ubiquitin carboxyl-terminal hydrolase 7 (Homo sapiens, UniProt Q93009)) of Cc1cc(Cl)cc(-c2ncnc3cc(CN4C(=O)CCN(CC(F)(F)F)C4=O)sc23)c1C[C@@H]1CNCC(C)(C)O1 > 8.00

----------
Ok so here's the combined literature set: IC50 for Ubiquitin carboxyl-terminal hydrolase 7 (Homo sapiens).

Recorded IC50, per entry:
                                   molecule                               measured_on      test_value
0  O=C1COc2cc(Cl)cc(-c3ccnc4cc(Cn5ncc(C6CC6)cc5=O)sc34)c2N1[C@@H]1CNC2(CCC2)C1  Ubiquitin carboxyl-terminal hydrolase 7 (Homo sapiens)         < 10 nM
1  CN(Cc1ccccc1)C(=O)N1CCC(O)(Cn2cnc3cc(Cl)ccc3c2=O)CC1  Ubiquitin carboxyl-terminal hydrolase 7 (Homo sapiens)  200 to 1000 nM
2            Cc1nnc2nc3c(nn12)-c1ccccc1C3=O  Ubiquitin carboxyl-terminal hydrolase 7 (Homo sapiens)          550 nM

Please list IC50 recorded for the molecule CN(C)S(=O)(=O)NCCc1cc2nccc(-c3cc(Cl)cc4c3O[C@@H](C(=O)N3CCNCC3)C4)c2s1 < 1000 nM

Please list IC50 recorded for the molecule CN1C[C@@H](N2CCCc3cc(Cl)cc(-c4ccnc5cc(CN6C(=O)CCC6=O)sc45)c32)CC12CCC2 < 10 nM

Please list IC50 recorded for the molecule COc1ccc(C2C(C#N)=C(N)Oc3n[nH]c(-c4ccc(Cl)cc4)c32)cc1I (stereo not shown) 15000 nM

Please list IC50 recorded for the molecule N#Cc1ccc2c(-c3cc(Cl)cc4c3O[C@@H](c3n[nH]c5c3CNCC5)C4)ccnc2c1 < 1000 nM

Please list IC50 recorded for the molecule Cc1cc(Cl)cc(-c2ncnc3cc(CN4C(=O)CCNC4=O)sc23)c1C[C@@H]1CNCCO1 < 10 nM

Please list IC50 recorded for the molecule O=c1ccn(CC(F)(F)F)c(=O)n1Cc1cc2nccc(-c3cc(Cl)cc4c3N([C@@H]3CCNC3)CCC4)c2s1 < 10 nM

Please list IC50 recorded for the molecule Cc1cc(Cl)cc(-c2ccnc3cc(CN4C(=O)C5CC5C4=O)sc23)c1CN1C[C@@H](C)NC[C@@H]1C (stereo partly shown) 10 to 100 nM
